The reported measurements were obtained from the supplement of paper PMC10567573.

B1: KRT15 (parent)
chain: SNFHINVEESVDGQVVSSHKREI

- Variants of: B1
- protocol-description: protein stability index of a GFP-peptide fusion (GPS, HEK-293T) (PSI 1-6); higher = more stable;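 also: lentivirally expressed fusions sorted by FACS into six bins by GFP to DsRed ratio, PSI derived from sequencing read proportions per bin multiplied by bin number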
- measurement-context: c terminus: native
Please provide measured protein stability index for the entries that follow.
One number for each entry.

Give protein stability index for all variants that follow.
1. Q14R
2. Q14C
3. H19D
4. R21L
5. F3A
6. I23S

2.01
2.21
5
4.52
2.51
3.79
